- Test system: SK-BR-3
- PROTOCOL_SUMMARY: normalised viability (% of control), CellTiter-Blue; higher = more viable cells (about 100 = DMSO control)
- STUDY_CONDITIONS: 1 nM; incubation time: 72 h
# normalised viability values compiled below
OUTCOME_MEASURE: normalised viability (%)

[[record]]
input_smiles = "O=C(O)CC[C@H]1CC[C@@](c2cc(F)ccc2F)(S(=O)(=O)c2ccc(Cl)cc2)CC1"
outcome_measure = "normalised viability"
observed_measurement = 106

[[record]]
input_smiles = "COc1cc2c(N3CCN(C(=O)Nc4ccc(OC(C)C)cc4)CC3)ncnc2cc1OCCCN1CCCCC1"
outcome_measure = "normalised viability"
observed_measurement = 111

[[record]]
input_smiles = "CO[C@H]1C[C@@H]2CC[C@@H](C)[C@@](O)(O2)C(=O)C(=O)N2CCCC[C@H]2C(=O)O[C@H]([C@H](C)C[C@@H]2CC[C@@H](O)[C@H](OC)C2)CC(=O)[C@H](C)/C=C(\\C)[C@@H](O)[C@@H](OC)C(=O)[C@H](C)C[C@H](C)/C=C/C=C/C=C/1C"
outcome_measure = "normalised viability"
observed_measurement = 84.8

[[record]]
input_smiles = "NC1(c2ccc(-c3nc4ccn5c(=O)[nH]nc5c4cc3-c3ccccc3)cc2)CCC1"
outcome_measure = "normalised viability"
observed_measurement = 107

[[record]]
input_smiles = "COc1cc2c(Oc3ccc(NC(=O)C4(C(=O)Nc5ccc(F)cc5)CC4)cc3F)ccnc2cc1OCCCN1CCOCC1"
outcome_measure = "normalised viability"
observed_measurement = 97.5


###

# normalised viability values compiled below
- System: CAL-85-1
- PROTOCOL_SUMMARY: normalised viability (% of control), CellTiter-Blue; higher = more viable cells (about 100 = DMSO control)
- STUDY_CONDITIONS: 3 nM; incubation time: 72 h
OUTCOME_MEASURE: normalised viability (%)

[[record]]
compound = "C[C@@H](CN1CC(=O)NC(=O)C1)N1CC(=O)NC(=O)C1 [Dexrazoxane]"
unit_of_measurement = "%"
observed_measurement = 98.4

[[record]]
compound = "CC(C)C[C@H](NC(=O)[C@H](CCc1ccccc1)NC(=O)CN1CCOCC1)C(=O)N[C@@H](Cc1ccccc1)C(=O)N[C@@H](CC(C)C)C(=O)[C@@]1(C)CO1 [Carfilzomib]"
unit_of_measurement = "%"
observed_measurement = 86

[[record]]
compound = "NC1(c2ccc(-c3nc4ccn5c(=O)[nH]nc5c4cc3-c3ccccc3)cc2)CCC1 [MK-2206]"
unit_of_measurement = "%"
observed_measurement = 95

[[record]]
compound = "C[C@@H]1C[C@H]2[C@@H]3CCC4=CC(=O)C=C[C@]4(C)[C@@]3(F)[C@@H](O)C[C@]2(C)[C@@]1(O)C(=O)CO [Dexamethasone]"
unit_of_measurement = "%"
observed_measurement = 102


###

# normalised viability values compiled below
- System: CAL-51
- PROTOCOL_SUMMARY: normalised viability (% of control), CellTiter-Blue; higher = more viable cells (about 100 = DMSO control)
- STUDY_CONDITIONS: 100 nM; incubation time: 72 h
OUTCOME_MEASURE: normalised viability (%)

[[record]]
compound = "Cn1nnc2c(C(N)=O)ncn2c1=O [Temozolomide]"
unit_of_measurement = "%"
observed_measurement = 91.4

[[record]]
compound = "O=C(c1cc(Cc2n[nH]c(=O)c3ccccc23)ccc1F)N1CCN(C(=O)C2CC2)CC1 [Olaparib]"
unit_of_measurement = "%"
observed_measurement = 97.7

[[record]]
compound = "Cc1c(C(=O)Nc2ccc(N3C[C@@H](C)O[C@@H](C)C3)nc2)cccc1-c1ccc(OC(F)(F)F)cc1 [NVP-LDE225]"
unit_of_measurement = "%"
observed_measurement = 101

[[record]]
compound = "CC(C)C(=O)Nc1ccc([N+](=O)[O-])c(C(F)(F)F)c1 [Flutamide]"
unit_of_measurement = "%"
observed_measurement = 106

[[record]]
compound = "C[C@@H]1C[C@H]2[C@@H]3CCC4=CC(=O)C=C[C@]4(C)[C@@]3(F)[C@@H](O)C[C@]2(C)[C@@]1(O)C(=O)CO [Dexamethasone]"
unit_of_measurement = "%"
observed_measurement = 95.6


Values from the supplement of paper PMC4862054
